Reference for the values: the supplement of paper PMC6379048

Molecular target: MSI1 (UniProt O43347)
Sequence (O43347 whole entry): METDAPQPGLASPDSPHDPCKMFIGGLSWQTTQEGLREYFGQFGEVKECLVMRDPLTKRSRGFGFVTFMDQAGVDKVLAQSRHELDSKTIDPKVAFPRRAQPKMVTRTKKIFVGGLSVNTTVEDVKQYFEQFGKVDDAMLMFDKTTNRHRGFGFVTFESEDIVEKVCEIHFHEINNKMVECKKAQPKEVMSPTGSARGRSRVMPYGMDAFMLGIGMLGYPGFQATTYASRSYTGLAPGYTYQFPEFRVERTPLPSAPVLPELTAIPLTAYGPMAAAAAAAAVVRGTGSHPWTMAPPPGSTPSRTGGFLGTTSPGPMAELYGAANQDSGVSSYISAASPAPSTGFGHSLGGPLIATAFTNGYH
Experiment: EC50 of free RNA motif oligo competing protein binding to immobilised probe
parameter: pEC50
As a rule, pEC50 stands for the negative log10 of the concentration, concentration in M.

1) UAUUUAU	6.31

Now consider a different sequence.
Quote MSI1 (UniProt O43347) pEC50 for entry AAUAAA .
5.46

---

Target: MRPL17 (UniProt Q9NRX2)
Assay: EC50 of free RNA motif oligo competing protein binding to immobilised probe
parameter: EC50 (nM)
Note: unit nM is implicit; provide only the numeric part.

Output EC50 of CUGUCCU
51.9

---

Target: DHX37 (UniProt Q8IY37)
Sequence: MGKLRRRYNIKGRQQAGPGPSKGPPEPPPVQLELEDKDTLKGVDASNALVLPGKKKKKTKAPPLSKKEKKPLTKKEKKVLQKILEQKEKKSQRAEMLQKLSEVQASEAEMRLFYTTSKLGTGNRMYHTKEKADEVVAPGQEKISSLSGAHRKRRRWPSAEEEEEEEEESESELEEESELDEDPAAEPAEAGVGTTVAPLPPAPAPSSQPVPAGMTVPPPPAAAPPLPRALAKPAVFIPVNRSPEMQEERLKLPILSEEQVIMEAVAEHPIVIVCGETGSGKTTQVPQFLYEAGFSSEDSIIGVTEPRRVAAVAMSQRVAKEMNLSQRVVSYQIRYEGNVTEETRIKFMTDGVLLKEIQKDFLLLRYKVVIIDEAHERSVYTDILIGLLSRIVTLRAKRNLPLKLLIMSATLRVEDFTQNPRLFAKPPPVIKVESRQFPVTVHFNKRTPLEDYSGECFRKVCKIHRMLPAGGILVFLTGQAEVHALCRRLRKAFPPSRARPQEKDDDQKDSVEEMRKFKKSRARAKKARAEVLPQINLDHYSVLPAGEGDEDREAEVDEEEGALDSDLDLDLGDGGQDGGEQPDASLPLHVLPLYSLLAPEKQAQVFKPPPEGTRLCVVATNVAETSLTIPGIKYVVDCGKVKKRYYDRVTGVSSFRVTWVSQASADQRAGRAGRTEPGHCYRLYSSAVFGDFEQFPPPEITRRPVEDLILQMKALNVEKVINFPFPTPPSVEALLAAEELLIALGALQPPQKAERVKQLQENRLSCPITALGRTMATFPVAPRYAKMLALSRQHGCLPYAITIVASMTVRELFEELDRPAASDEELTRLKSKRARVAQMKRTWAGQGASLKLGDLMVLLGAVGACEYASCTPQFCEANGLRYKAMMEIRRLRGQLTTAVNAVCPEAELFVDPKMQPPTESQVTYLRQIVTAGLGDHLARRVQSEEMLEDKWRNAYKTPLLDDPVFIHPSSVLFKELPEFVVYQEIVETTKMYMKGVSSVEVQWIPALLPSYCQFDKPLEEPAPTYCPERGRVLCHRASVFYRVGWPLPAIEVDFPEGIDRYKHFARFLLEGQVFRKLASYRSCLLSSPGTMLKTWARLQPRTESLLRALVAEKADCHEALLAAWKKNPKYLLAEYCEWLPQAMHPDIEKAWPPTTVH
Assay: EC50 of free RNA motif oligo competing protein binding to immobilised probe
parameter: EC50 (µM)
Note: unit µM is implicit; provide only the numeric part.

Output EC50 of UAUUUAU
4.68

---

Molecular target: ICT1 (UniProt Q14197)
Experiment: EC50 of free RNA motif oligo competing protein binding to immobilised probe
parameter: pEC50
As a rule, pEC50 stands for the negative log10 of the concentration, concentration in M.

Output pEC50 of CUGUCCU
6.90

---

Molecular target: PABPN1 (UniProt Q86U42)
Sequence: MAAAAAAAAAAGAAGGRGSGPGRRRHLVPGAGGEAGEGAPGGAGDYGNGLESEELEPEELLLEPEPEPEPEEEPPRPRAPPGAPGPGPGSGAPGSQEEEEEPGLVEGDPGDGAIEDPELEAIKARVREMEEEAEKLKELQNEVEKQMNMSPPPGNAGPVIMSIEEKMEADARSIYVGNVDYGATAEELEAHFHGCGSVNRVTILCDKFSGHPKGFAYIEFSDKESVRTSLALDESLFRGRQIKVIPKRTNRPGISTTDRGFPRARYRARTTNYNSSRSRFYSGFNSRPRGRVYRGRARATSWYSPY
Experiment: Kd (EC50 corrected by depletion factor)
parameter: Kd (nM)
Note: unit nM is implicit; provide only the numeric part.

Output Kd of AAUAAA
368

---

Molecular target: MRPS28 (UniProt Q9Y2Q9)
Assay: Kd (EC50 corrected by depletion factor)
parameter: Kd
Answers without a unit are incomplete; give the number and then its unit.

Output Kd of UAUUUAU
15.9 nM

---

Molecular target: ATIC (UniProt P31939)
Sequence (P31939 whole entry, looked up): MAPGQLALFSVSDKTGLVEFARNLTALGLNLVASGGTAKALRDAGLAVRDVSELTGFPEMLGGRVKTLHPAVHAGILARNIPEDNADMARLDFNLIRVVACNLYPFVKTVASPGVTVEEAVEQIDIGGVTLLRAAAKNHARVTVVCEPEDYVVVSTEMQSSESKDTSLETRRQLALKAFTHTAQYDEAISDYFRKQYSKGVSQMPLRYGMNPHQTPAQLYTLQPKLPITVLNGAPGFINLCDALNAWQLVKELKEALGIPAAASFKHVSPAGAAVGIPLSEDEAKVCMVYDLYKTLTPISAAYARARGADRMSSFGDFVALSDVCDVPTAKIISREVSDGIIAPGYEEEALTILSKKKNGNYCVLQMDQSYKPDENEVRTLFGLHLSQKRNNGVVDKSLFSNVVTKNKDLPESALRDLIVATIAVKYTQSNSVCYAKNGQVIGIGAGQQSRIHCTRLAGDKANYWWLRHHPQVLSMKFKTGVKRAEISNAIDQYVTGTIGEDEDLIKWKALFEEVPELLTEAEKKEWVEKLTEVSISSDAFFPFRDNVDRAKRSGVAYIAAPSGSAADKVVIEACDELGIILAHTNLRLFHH
Experiment: EC50 of free RNA motif oligo competing protein binding to immobilised probe
parameter: EC50
Answers without a unit are incomplete; give the number and then its unit.

Output EC50 of UAUUUAU
804 nM

---

Target: LSM2 (UniProt Q9Y333)
Sequence: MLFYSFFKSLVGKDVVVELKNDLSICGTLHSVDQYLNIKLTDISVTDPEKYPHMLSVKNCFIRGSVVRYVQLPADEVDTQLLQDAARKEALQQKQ
Assay: Kd (EC50 corrected by depletion factor)
parameter: pKd
As a rule, pKd stands for the negative log10 of the concentration, concentration in M.

1) UAUUUAU	6.51

Now consider a different sequence.
Quote LSM2 (UniProt Q9Y333) pKd for entry AAUAAA .
7.28

---

Biological target: KHSRP (UniProt Q92945)
Sequence: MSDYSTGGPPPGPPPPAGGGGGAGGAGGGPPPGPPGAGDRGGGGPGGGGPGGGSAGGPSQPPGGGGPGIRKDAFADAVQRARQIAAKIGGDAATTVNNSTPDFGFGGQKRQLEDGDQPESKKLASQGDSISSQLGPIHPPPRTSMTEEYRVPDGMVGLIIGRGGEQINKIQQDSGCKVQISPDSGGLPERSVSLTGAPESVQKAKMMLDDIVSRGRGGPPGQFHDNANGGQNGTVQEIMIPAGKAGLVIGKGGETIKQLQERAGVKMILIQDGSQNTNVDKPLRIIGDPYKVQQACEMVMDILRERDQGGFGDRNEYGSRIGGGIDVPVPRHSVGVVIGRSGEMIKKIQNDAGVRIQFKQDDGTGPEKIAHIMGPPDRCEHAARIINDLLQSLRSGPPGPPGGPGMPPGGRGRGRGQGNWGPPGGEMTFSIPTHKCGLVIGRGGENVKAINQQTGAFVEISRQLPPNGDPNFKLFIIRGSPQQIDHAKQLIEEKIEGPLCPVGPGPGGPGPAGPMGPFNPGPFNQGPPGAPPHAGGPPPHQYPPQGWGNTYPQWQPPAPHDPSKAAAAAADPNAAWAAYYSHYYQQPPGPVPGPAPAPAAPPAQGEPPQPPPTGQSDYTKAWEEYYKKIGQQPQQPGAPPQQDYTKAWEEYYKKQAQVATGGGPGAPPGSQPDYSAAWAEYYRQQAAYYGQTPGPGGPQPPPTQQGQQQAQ
Test: EC50 of free RNA motif oligo competing protein binding to immobilised probe
parameter: pEC50
As a rule, pEC50 stands for the negative log10 of the concentration, concentration in M.

Quote KHSRP (UniProt Q92945) pEC50 for entry UAUUUAU .
5.76

Quote KHSRP (UniProt Q92945) pEC50 for entry AAUAAA .
5.65

---

Molecular target: MRPS7 (UniProt Q9Y2R9)
Test: EC50 of free RNA motif oligo competing protein binding to immobilised probe
parameter: EC50 (nM)
Note: unit nM is implicit; provide only the numeric part.

Output EC50 of UAUUUAU
84.2

---

Target: U2AF2 (UniProt P26368)
Sequence (P26368 whole entry): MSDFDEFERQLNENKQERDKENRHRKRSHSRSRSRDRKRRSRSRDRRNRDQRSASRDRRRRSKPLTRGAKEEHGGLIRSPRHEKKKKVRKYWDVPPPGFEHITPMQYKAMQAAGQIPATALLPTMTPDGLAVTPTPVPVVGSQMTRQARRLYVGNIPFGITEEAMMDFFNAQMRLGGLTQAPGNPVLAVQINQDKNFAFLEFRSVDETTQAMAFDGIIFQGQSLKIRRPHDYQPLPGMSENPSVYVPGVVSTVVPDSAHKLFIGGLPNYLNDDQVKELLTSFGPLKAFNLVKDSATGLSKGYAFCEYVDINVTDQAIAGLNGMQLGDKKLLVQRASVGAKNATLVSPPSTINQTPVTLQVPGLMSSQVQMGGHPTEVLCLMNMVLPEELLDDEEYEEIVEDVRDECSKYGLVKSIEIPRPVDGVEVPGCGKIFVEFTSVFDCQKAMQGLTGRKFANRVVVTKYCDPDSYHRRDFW
Assay: Kd (EC50 corrected by depletion factor)
parameter: Kd (nM)
Note: unit nM is implicit; provide only the numeric part.

Output Kd of AAUAAA
106

---

Molecular target: HNRNPD (UniProt Q14103)
Sequence: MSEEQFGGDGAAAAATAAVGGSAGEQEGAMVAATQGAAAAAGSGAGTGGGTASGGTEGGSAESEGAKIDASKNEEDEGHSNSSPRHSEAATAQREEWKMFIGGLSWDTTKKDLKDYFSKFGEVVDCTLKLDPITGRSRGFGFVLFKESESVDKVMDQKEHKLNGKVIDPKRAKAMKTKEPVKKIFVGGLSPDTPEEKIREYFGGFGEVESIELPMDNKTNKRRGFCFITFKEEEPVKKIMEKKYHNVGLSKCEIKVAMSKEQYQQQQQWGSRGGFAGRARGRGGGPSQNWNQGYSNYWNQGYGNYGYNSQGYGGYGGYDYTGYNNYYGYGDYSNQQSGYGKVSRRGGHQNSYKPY
Experiment: Kd (EC50 corrected by depletion factor)
parameter: Kd
Answers without a unit are incomplete; give the number and then its unit.

1) UAUUUAU	0.583 µM

Now consider a different sequence.
Output Kd of AAUAAA
0.764 µM

---

Target: MRPS18B (UniProt Q9Y676)
Assay: Kd (EC50 corrected by depletion factor)
parameter: Kd (µM)
Note: unit µM is implicit; provide only the numeric part.

Output Kd of UAUUUAU
0.0529
